// provenance: ChEMBL document CHEMBL1121950

Molecular target: Pyruvate kinase PKLR (Rattus norvegicus) (UniProt P12928)
Sequence (P12928 whole entry): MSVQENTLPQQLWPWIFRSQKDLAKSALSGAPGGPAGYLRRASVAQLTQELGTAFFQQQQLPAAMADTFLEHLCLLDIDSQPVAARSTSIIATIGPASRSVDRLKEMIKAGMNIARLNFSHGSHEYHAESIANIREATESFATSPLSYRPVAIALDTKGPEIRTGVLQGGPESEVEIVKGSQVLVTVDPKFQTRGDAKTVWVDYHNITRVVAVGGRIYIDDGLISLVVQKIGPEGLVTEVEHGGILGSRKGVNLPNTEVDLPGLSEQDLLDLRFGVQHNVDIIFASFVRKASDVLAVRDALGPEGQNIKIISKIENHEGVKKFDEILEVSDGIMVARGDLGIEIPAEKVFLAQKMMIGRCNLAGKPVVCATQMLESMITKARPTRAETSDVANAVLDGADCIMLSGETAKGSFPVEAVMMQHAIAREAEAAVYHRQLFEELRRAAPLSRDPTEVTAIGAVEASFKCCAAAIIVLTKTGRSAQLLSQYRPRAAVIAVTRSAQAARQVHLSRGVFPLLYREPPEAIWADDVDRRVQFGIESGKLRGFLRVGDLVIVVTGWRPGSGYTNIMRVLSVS
Assay: Ratio of Km(ADP)/Ki or Km for rat liver pyruvate kinase
The label depends only on Inhibitory potency: fulfilled if it is at least 0.2, not fulfilled if it is smaller.

>>> group("CNc1nc2c(N)ncnc2n1C1O[C@H](COP(=O)(O)OP(=O)(O)O)[C@@H](O)[C@H]1O (stereo partly drawn)")
"fulfilled"
>>> group("C[C@@H](OP(=O)(O)OP(=O)(O)O)[C@H]1OC(n2cnc3c(N)ncnc32)[C@H](O)[C@@H]1O (stereo partly drawn)")
"not fulfilled"
>>> group("CSc1nc2c(N)ncnc2n1C1O[C@H](COP(=O)(O)OP(=O)(O)O)[C@@H](O)[C@H]1O (stereo partly drawn)")
"not fulfilled"
>>> group("CSc1nc(N)c2ncn([C@@H]3O[C@H](COP(=O)(O)OP(=O)(O)O)[C@@H](O)[C@H]3O)c2n1")
"fulfilled"
>>> group("CNc1nc(N)c2ncn(C3O[C@H](COP(=O)(O)OP(=O)(O)O)[C@@H](O)[C@H]3O)c2n1 (stereo partly drawn)")
"fulfilled"
>>> group("Nc1ncnc2c1nc(Br)n2[C@@H]1O[C@H](COP(=O)(O)OP(=O)(O)O)[C@@H](O)[C@H]1O")
"not fulfilled"
>>> group("CCCNc1nc2c(N)ncnc2n1C1O[C@H](COP(=O)(O)OP(=O)(O)O)[C@@H](O)[C@H]1O (stereo partly drawn)")
"not fulfilled"
>>> group("Nc1nc(N)c2ncn(C3O[C@H](COP(=O)(O)OP(=O)(O)O)[C@@H](O)[C@H]3O)c2n1 (stereo partly drawn)")
"fulfilled"
